Numbers sourced from patent US20260206761A1.

System: Rhipicephalus microplus larvae (strain Parkhurst, resistant against synthetic pyrethroids)
Assay: Rhipicephalus (Boophilus) microplus in-vitro contact test, larval cattle tick
Assay type: in vivo
Conditions: application rate 5 pg/cm^2 (=500 g/ha), after 48 hours, read-out: activity (efficacy: larvae dead or moribund)
measured.metric: pest or weed control at 500 g/ha
Record the result as a number with its unit.

Answered cases to consult:
molecule	target.under.test	pest or weed control at 500 g/ha
CC(NC(=O)c1cc(Br)cc(C2(C(F)(F)F)CC2)c1)c1nc(Cl)nn1-c1ncccn1 (stereo not shown)	Rhipicephalus microplus larvae (strain Parkhurst, resistant against synthetic pyrethroids)	90%
C[C@H](NC(=O)c1cc(C(F)(F)F)cc(C2(C#N)CC2)c1)c1ncnn1-c1ccc(Cl)cn1	Rhipicephalus microplus larvae (strain Parkhurst, resistant against synthetic pyrethroids)	100%
C[C@H](NC(=O)c1cc(C#N)cc(C2CC2)c1)c1ncnn1-c1ncccn1	Rhipicephalus microplus larvae (strain Parkhurst, resistant against synthetic pyrethroids)	80%
C[C@H](NC(=O)c1cc(Cl)cc(S(=O)(=O)C(F)(F)F)c1)c1nc(C2CC2)nn1-c1ccc(C#N)cn1	Rhipicephalus microplus larvae (strain Parkhurst, resistant against synthetic pyrethroids)	100%
COc1nc([C@H](C)NC(=O)c2cc(Cl)cc(S(C)(=O)=O)c2)n(-c2ccc(C#N)cn2)n1	Rhipicephalus microplus larvae (strain Parkhurst, resistant against synthetic pyrethroids)	100%

Specify reported pest or weed control at 500 g/ha for the molecule shown: CCCc1nc([C@H](C)NC(=O)c2cc(Cl)cc(S(C)(=O)=O)c2)n(-c2ccc(C#N)cn2)n1
100%

Specify reported pest or weed control at 500 g/ha for the molecule shown: C[C@H](NC(=O)c1cc(Cl)cc(S(=O)(=O)C2CC2)c1)c1ncnn1-c1ccc(C#N)cn1
100%

Specify reported pest or weed control at 500 g/ha for the molecule shown: CC(C)Oc1nc([C@H](C)NC(=O)c2cc(Cl)cc(S(C)(=O)=O)c2)n(-c2ccc(C#N)cn2)n1
80%

Specify reported pest or weed control at 500 g/ha for the molecule shown: COc1nc([C@H](C)NC(=O)c2cc(Cl)cc(S(=O)(=O)C(F)F)c2)n(-c2ccc(C#N)cn2)n1
100%

Specify reported pest or weed control at 500 g/ha for the molecule shown: Cc1nc([C@H](C)NC(=O)c2cc(C(F)(F)F)cc(S(C)(=O)=O)c2)n(-c2ccc(C#N)cn2)n1
100%
